target: Nitric oxide synthase, inducible (Mus musculus); test: Inhibition of LPS-induced iNOS in mouse BV2 cells after 4 hrs by DAF-FMDA dye-based fluorescence assay
# IC50 per record follows
Express your answer in µM, writing the number without its unit.

Recorded IC50, per entry:
COc1cc(/C=C/C(=O)N[C@@H](Cc2ccc(O)cc2)C(=O)O)ccc1O :: 1.01
O=C(/C=C/c1ccccc1)N[C@@H](Cc1ccccc1)C(=O)O :: 18.9
O=C(/C=C/c1ccc(O)cc1)N[C@@H](Cc1ccccc1)C(=O)O :: 8.45
O=C(/C=C/c1ccc(O)cc1)N[C@@H](Cc1ccc(O)cc1)C(=O)O :: 2.1
O=C(/C=C/c1cccc(O)c1)N[C@@H](Cc1ccccc1)C(=O)O :: 29.2

Now look at this one.
Report IC50, nothing else, for this compound: COc1cc(/C=C/C(=O)N[C@@H](Cc2ccccc2)C(=O)O)ccc1O 2.98

Data origin: ChEMBL document CHEMBL4229389
